Biological target: human ether-à-go-go-related gene (hERG) potassium channel (human, UniProt Q12809)
Sequence (Q12809 whole entry, looked up): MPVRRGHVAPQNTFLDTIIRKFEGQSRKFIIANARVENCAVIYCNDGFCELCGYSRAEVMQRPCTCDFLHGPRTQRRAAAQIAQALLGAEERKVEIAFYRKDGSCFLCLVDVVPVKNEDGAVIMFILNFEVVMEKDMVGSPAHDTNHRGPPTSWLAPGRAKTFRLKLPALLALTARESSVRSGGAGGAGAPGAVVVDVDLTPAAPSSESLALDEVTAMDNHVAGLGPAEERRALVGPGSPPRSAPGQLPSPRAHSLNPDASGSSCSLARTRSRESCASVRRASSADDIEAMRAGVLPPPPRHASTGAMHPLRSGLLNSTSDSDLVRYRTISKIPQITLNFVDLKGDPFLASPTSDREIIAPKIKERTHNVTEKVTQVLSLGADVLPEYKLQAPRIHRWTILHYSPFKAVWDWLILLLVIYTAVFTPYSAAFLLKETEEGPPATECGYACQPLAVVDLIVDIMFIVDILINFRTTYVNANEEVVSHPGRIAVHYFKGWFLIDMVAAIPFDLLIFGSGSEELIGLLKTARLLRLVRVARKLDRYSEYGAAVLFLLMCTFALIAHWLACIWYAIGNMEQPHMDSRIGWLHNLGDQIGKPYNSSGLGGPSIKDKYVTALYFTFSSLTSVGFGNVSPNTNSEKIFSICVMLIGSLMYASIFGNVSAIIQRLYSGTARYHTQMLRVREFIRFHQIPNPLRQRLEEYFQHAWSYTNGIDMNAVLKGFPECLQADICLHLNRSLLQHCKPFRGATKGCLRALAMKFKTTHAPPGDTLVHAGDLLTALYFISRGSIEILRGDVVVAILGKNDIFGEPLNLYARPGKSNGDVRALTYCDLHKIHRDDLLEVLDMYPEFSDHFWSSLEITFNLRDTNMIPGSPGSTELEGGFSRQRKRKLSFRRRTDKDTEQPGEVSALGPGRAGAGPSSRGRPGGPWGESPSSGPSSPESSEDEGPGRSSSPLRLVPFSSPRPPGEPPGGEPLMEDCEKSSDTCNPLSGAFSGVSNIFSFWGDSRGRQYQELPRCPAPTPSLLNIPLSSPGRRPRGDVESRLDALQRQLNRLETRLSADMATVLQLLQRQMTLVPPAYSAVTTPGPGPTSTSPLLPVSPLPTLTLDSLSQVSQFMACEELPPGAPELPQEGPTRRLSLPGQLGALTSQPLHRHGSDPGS
Experiment: primary screen, population patch clamp on CHO cells stably expressing hERG; higher = less effect of the substance
Screen size: about 310,000 compounds; about 2,200 (0.71%) showed an effect of 50% or more. Effects have a minus sign here. The full list was thinned out, with strong results kept by preference.
value-type: hERG current change (%, negative = inhibition) at 1uM (%)
Answer format: numeric, % implied, no suffix.

Take a look at these entries with their results.
> print(dat)
                                   molecule  measure.unit  assay.value
1  CCOC(=O)C1CCN(CC(O)COc2ccc(C(=O)CC)cc2)CC1.Cl (centres unmarked)             %        -49.5
2        Cc1occc1-c1nnc(SCC(=O)NC2CCCC2)n1C             %         13.5

Identify measured hERG current change (%, negative = inhibition) at 1uM corresponding to Cc1csc(SC(C)C(=O)NC2CCCCC2C)n1 (centres unmarked)
7.18

Retrieve hERG current change (%, negative = inhibition) at 1uM measured for Cc1nonc1NC(=O)CSc1nnc(-c2ccoc2C)n1-c1cccc(Cl)c1 and print it.
-58.8

Return value of hERG current change (%, negative = inhibition) at 1uM for input Cc1ccc2cc(CN(CCN(C)C)C(=O)Nc3ccc(Cl)cc3)c(=O)[nH]c2c1 , no commentary.
-20.7

Complete the entry with hERG current change (%, negative = inhibition) at 1uM for CCOC(=O)C[n+]1c(C)csc1C.[Br-]
9.26

State its hERG current change (%, negative = inhibition) at 1uM: CCN1CCCC1CN(Cc1cc2ccc(C)cc2[nH]c1=O)C(=S)Nc1ccc(OC)cc1 (centres unmarked)
21.4

Identify hERG current change (%, negative = inhibition) at 1uM associated with the molecule Cc1ccc2[nH]c(=O)c(CN(CCCN(C)C)C(=O)Nc3ccc(Cl)cc3)cc2c1
-62.7

Find the measured hERG current change (%, negative = inhibition) at 1uM of CCN(CC)c1ccc(C2NC(=O)NC(C)=C2C(=O)Nc2ccccc2)cc1 (centres unmarked) and report it.
17.3

Return hERG current change (%, negative = inhibition) at 1uM for the following molecule: CCN(C(=O)CSc1ncnc2c1cnn2-c1ccccc1)C1CCS(=O)(=O)C1 (centres unmarked)
9.57

In one line, give reported hERG current change (%, negative = inhibition) at 1uM of the entry O=C(Cc1ccc(NS(=O)(=O)c2cccc(C(F)(F)F)c2)cc1)NCCN1CCOCC1 .
5.88

Report hERG current change (%, negative = inhibition) at 1uM, nothing else, for this molecule: OC(COCc1ccc(Cl)cc1)CN1CCN(CC(O)COCc2ccc(Cl)cc2)CC1 (centres unmarked)
-67.5

====

Target: human ether-à-go-go-related gene (hERG) potassium channel (human)
Assay: primary screen, population patch clamp on CHO cells stably expressing hERG; higher = less effect of the substance
About 2,200 (0.71%) of roughly 310,000 compounds showed an effect of 50% or more. Effects have a minus sign here. The list comes from a sample in which strong results are over-represented; it also holds close analogues and randomly drawn compounds.
value-type: hERG current change (%, negative = inhibition) at 1uM (%)
State the answer as a number, implicitly in %.

Worked examples, 4 compounds total:
> print(dat)
                                        mol  measure.unit  assay.value
1  CC1(C)Cc2c(C#N)c(SCC(=O)c3ccccc3)nc(N3CCOCC3)c2CS1             %           13
2  O=[N+]([O-])c1ccc(C[n+]2cccc3c4ccccc4ccc32)cc1.[Br-]             %          -18
3  O=C(/C=C/c1ccc(Cl)cc1)N1CCN(c2ccc(Cl)cc2[N+](=O)[O-])CC1             %        -81.4
4      CCCCCCCC[n+]1cccc2c3ccccc3ccc21.[I-]             %          -92

Write down the reported hERG current change (%, negative = inhibition) at 1uM (system: human ether-à-go-go-related gene (hERG) potassium channel (human)) of CCOCCCN(C)C1CCN(C(=O)c2oc3ccccc3c2NC(=O)COc2ccc(F)cc2)CC1
-85.9

Answer briefly: hERG current change (%, negative = inhibition) at 1uM recorded on human ether-à-go-go-related gene (hERG) potassium channel (human) for Cc1cc(N2CCN(c3ccccc3)CC2)n2cc(-c3ccccc3)nc2n1
-16.4

Consider the compound COc1ccc(CCC(=O)Nc2nc3ccccc3[nH]2)cc1 tested on human ether-à-go-go-related gene (hERG) potassium channel (human); state its hERG current change (%, negative = inhibition) at 1uM.
5.78

====

# hERG current change (%, negative = inhibition) at 1uM values compiled below
Target: human ether-à-go-go-related gene (hERG) potassium channel (human)
Assay: primary screen, population patch clamp on CHO cells stably expressing hERG; higher = less effect of the substance
About 2,200 (0.71%) of roughly 310,000 compounds showed an effect of 50% or more. The effect is printed as a negative number. The full list was thinned out, with strong results kept by preference.
Express the result in % but write the number alone.

Field: example entries. Status: answers known.
> print(dat)
                                        mol  measure.unit  assay.value
1  Cc1ccc(C(=O)c2c3ccc(C(F)(F)F)cc3[n+]([O-])n2CCCC(N)=O)cc1             %          -39
2      CN(C)C/C=C(/c1ccc(Br)cc1)c1cccnc1.Cl             %        -60.8

Now look at this one.
Determine its reported hERG current change (%, negative = inhibition) at 1uM: NC(=O)CCCn1c(C(=O)c2ccc(Cl)cc2)c2ccc([N+](=O)[O-])cc2[n+]1[O-]
-58.2

====

Target: human ether-à-go-go-related gene (hERG) potassium channel (human, UniProt Q12809)
Test: primary screen, population patch clamp on CHO cells stably expressing hERG; higher = less effect of the substance
The whole screen tested about 310,000 compounds, of which about 2,200 (0.71%) showed an effect of 50% or more. The effect is printed as a negative number. The sample as a whole holds a higher share of strong results than the screen did.
value-type: hERG current change (%, negative = inhibition) at 1uM (%)
Field format: number, assumed %, no unit text.

> print(dat)
                                   compound  measure.unit  assay.value
1   CCOC(=O)C1(Cc2ccccc2)CCN(Cc2nccn2CC)CC1             %         8.81
2  CC(CCc1ccccc1)N(C)CC(O)c1cccc([N+](=O)[O-])c1.Cl (stereo not shown)             %        -56.8
3  COc1ccc(NC(=O)COc2ccc(C)cc2)c([N+](=O)[O-])c1             %         8.91

Here's the next entry for you.
Provide hERG current change (%, negative = inhibition) at 1uM, tested on human ether-à-go-go-related gene (hERG) potassium channel (human, UniProt Q12809), for CCOC(=O)C1(Cc2cccc(OC)c2)CCCN(Cc2nccn2CC)C1 (stereo not shown) .
-13.5

====

// reported hERG current change (%, negative = inhibition) at 1uM per item
Molecular target: human ether-à-go-go-related gene (hERG) potassium channel (human, UniProt Q12809)
Test: primary screen, population patch clamp on CHO cells stably expressing hERG; higher = less effect of the substance
Among all 310,000 compounds or so, about 2,200 (0.71%) showed an effect of 50% or more. Effects have a minus sign here. The sample as a whole holds a higher share of strong results than the screen did.
The reply should contain only the number, in %.

> print(dat)
                                   compound  assay.value
1  COc1cccc(CN2CCN(Cc3cccc4nonc34)CC2CCO)c1 (stereo not drawn)          -24
2  CCOc1ccccc1CN1CCN(Cc2ccon2)CC1CCO (stereo not drawn)        -7.08
3  COc1ccc(/C=C(\NC(=O)c2ccc(C)cc2)C(=O)NCCCn2ccnc2)cc1        -91.7
4  CC1(C)C(=O)C2(CCCCC2)C(=O)OC1C(=O)c1ccccc1 (stereo not drawn)         6.81
5  COc1ccc(/C=C(/NC(=O)c2ccc(OC)c(OC)c2)C(=O)NCCCn2ccnc2)cc1         15.5

Pending compound:
Provide only the value of recorded hERG current change (%, negative = inhibition) at 1uM for COc1ccc(C(=O)N/C(=C\c2ccccc2)C(=O)NCCCn2ccnc2)cc1
-18.2

====

Recorded hERG current change (%, negative = inhibition) at 1uM for the following compounds
Target: human ether-à-go-go-related gene (hERG) potassium channel (human)
Test: primary screen, population patch clamp on CHO cells stably expressing hERG; higher = less effect of the substance
In all, about 310,000 compounds went through this assay and about 2,200 (0.71%) showed an effect of 50% or more. Effects have a minus sign here. Many of the other results were omitted from the sample, so strong results are more common in it than they were.
Only the number, expressed in %, is required.

Examples with answers:
> print(dat)
                                   compound  assay.value
1  CCOC(=O)C(=CNNc1c(C)csc1C(=O)OC)C(=O)OCC         16.7
2  C=CCn1c(SCC(=O)NNC(=O)Nc2ccc(C)cc2)nnc1-c1ccccc1         1.92
3  Cc1nc2ccc(Br)cc2c2c1CC(CO)O2 (stereo not shown)         15.9
4  O=C(c1ccc(OC2CCN(CCc3ccccc3)CC2)cc1)N1CCCC1        -1.63
5  O=C(c1ccc(OC2CCN(Cc3ccc(F)cc3)CC2)cc1)N1CCCC1         7.68

Supply reported hERG current change (%, negative = inhibition) at 1uM belonging to this compound: CCCn1c2ccccc2c2cnn(CC(=O)NCCN(CC)CC)c(=O)c21
-67

Please report the measured hERG current change (%, negative = inhibition) at 1uM for CC1(C)CC(c2nc(-c3ccc([N+](=O)[O-])cc3)cs2)CCO1 (stereo not shown)
9.08

Let me know recorded hERG current change (%, negative = inhibition) at 1uM for CCCn1c2ccccc2c2cnn(CC(=O)NCCOC)c(=O)c21 , thanks.
6.19

Identify measured hERG current change (%, negative = inhibition) at 1uM corresponding to C=CCC1c2cccc(C(=O)O)c2C(=O)N1c1cccc(C)c1 (stereo not shown)
11.5

Return hERG current change (%, negative = inhibition) at 1uM for the following compound: Cc1cc(CNC(=O)CC2C(=O)NCCN2CC(C)(C)C)nn1C (stereo not shown)
10.4
